Each recorded value in this set is attributed to paper PMC6143588.

# Target: T1, HDAC1:MTA1 162–354 complex (UniProt Q13547 1-482; Q13330 162-354)
# T1 construct: HDAC1, untagged; MTA1 residues 162-354; Unlabelled complex formed beforehand, used in the anisotropy titration; also called MTA1:HDAC1 complex; HM; source: HEK293F, co-transfected, purified (FLAG resin, TEV cleavage, gel filtration); not shown: His10, N-terminal, cleaved; Flag3, N-terminal, cleaved
# T1 sequence (Q13547 whole entry, chain 1 of 2, the tested form may be a part): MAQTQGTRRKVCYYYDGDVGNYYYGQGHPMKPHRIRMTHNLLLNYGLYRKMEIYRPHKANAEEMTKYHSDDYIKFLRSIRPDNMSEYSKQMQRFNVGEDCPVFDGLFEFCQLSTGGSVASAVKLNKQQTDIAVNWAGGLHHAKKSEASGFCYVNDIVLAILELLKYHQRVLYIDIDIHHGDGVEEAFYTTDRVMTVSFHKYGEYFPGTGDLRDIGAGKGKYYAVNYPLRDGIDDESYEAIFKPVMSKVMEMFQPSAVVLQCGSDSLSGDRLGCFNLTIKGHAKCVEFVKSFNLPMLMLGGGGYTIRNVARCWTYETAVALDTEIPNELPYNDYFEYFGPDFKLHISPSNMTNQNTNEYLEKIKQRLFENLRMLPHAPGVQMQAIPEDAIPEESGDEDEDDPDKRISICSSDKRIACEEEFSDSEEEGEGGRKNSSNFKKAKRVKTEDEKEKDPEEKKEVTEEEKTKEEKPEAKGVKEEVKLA
# T1 sequence (Q13330 162-354, chain 2 of 2): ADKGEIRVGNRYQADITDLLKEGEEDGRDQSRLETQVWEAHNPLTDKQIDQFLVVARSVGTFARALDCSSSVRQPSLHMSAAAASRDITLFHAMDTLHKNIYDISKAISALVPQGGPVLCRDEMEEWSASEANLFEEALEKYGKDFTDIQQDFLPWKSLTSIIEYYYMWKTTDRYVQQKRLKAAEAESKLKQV
# Procedure details: fluorescence polarisation; fluorescence anisotropy of 5-FAM PWWP2A peptide with unlabelled HDAC1:MTA1 162-354 complex; room temperature; 50 mM Tris pH 7.5, 150 mM KAc, 0.15 mg/mL BSA, 0.03% Tween-20; excitation 480 nm, emission 535 nm
# Run conditions: both partners purified
Where no end group is shown, it is not given here. The star is where a group is joined. 5FAM = O=C1OC2(c3ccc(O)cc3Oc3cc(O)ccc32)c2ccc(C(=O)*)cc21
Outcome measure: Kd

>>> measured_value("5FAM-NAIKLRPRQVLCDKC (peptide, UniProt Q96N64 311-325, looked up, cysteine pairing not given here, PWWP2A residues 311-325, contains the motif R/QPRQV/L; source: synthetic peptide (Cambridge Research Biochemicals)) [fluorescein-labelled PWWP2A peptide (residues 311–325)]")
"20 to 100 µM"
